# Test system: Wolbachia pipientis
# RUN_DESCRIPTION: Anti-Wolbachia Cell-Based Screen
# Format: functional
# Design: scale not given: in the data most compounds retested in dose-response had high values
# ASSAY_CONTEXT: 5 µM
About 13,000 (27%) of roughly 48,000 compounds showed an effect of 50% or more. Some of the results follow.
OBSERVABLE: Percent Effect (%)
Use % as the unit, but write only the number.

// CC(=O)Nc1nc(-c2ccc(C)c(C)c2)c[nH]1 : Percent Effect value = -24.79

// Cc1ccc(CSc2nc(N)cc(NCCC(N)=O)n2)cc1 : Percent Effect value = -9.969

// Cn1cnc2c1CCN(Cc1nc(-c3ccco3)no1)C2 : Percent Effect value = -0.7314

// CC(C)c1ncc2c(n1)CN(Cc1nc(-c3ccco3)no1)CC2 : Percent Effect value = 103.4

// CC(C)c1ncc2c(n1)CN(Cc1nc(-c3ccccn3)no1)CC2 : Percent Effect value = 114.4

// CC(C)N1CCC(N2CCOC3(CCCC3)C2)C1=O (centres undefined) : Percent Effect value = 10.32

// O=C(O)c1nn(CC2CC2)c2c1CN(S(=O)(=O)c1cccnc1)CC2 : Percent Effect value = -14.04

// O=C(CNC(=O)C1CC1)NCC1CCCC1 : Percent Effect value = -13.86

// CN1CCc2[nH]nc(C(=O)N3CCCC4(CN(C)C(=O)O4)C3)c2C1 (centres undefined) : Percent Effect value = 0.3528

// NC(=O)CSCCC(=O)N1CCCC1c1ccsc1 (centres undefined) : Percent Effect value = -6.046

// COc1ccc(C(C)NC(=O)NCCc2ccc(C)nc2)c(OC)c1 (centres undefined) : Percent Effect value = 8.171

// Cc1cc(NCCS(C)(=O)=O)nc2ccccc12 : Percent Effect value = 2.58

// Cc1ccc(C)c(CNC(=O)NC(C)(C(=O)O)c2ccco2)c1 (centres undefined) : Percent Effect value = 3.789

// O=C(Nc1ccccc1)N1CCC2(CC(=O)N(c3ccsc3)C2)C1 (centres undefined) : Percent Effect value = 106

// CC(=O)N1CCCC1c1nnc2n1CCCCC2 (centres undefined) : Percent Effect value = 5.226

// COc1ccc2c(c1)C(=O)N(C)C1(CCN(CC=C(C)C)CC1)N2 : Percent Effect value = -3.399

// NC(=O)C1CCN(C(=O)NCCOc2ccc3c(c2)OCO3)C1 (centres undefined) : Percent Effect value = 88.72

// CCc1ncc2c(n1)CN(Cc1nc(-c3ccccn3)no1)CC2 : Percent Effect value = 1.522

// Cc1ccc(CSc2nc(N)cc(NCC(=O)N3CCNCC3)n2)cc1 : Percent Effect value = 0.4693

// Cc1ccsc1[C@@H]1CCN(C(=O)CCc2nc3ccccc3[nH]2)C[C@H]1O : Percent Effect value = -8.794

// CC(=O)NC1CCCN(C(=O)NCCOc2ccc3c(c2)OCO3)C1 (centres undefined) : Percent Effect value = 106.3

// NC(=O)CSCC(=O)NCC1CCCC1 : Percent Effect value = 107.6

// O=C(CN1CCCC(CO)C1)NCCOc1cccc(Cl)c1 (centres undefined) : Percent Effect value = 0.8563

// Cn1c(C2CC2)nc2c1CCN(CC(=O)Nc1nncs1)C2 : Percent Effect value = -1.4

// NC(=O)N1CCCC(C(=O)NCCOc2ccc3c(c2)OCO3)C1 (centres undefined) : Percent Effect value = 6.711

// CCc1cnc(C)nc1NCCSc1nnc(C)n1CC : Percent Effect value = -6.357

// CCCOc1ccc(CNC(=O)N2CCC(C(N)=O)C2)cc1 (centres undefined) : Percent Effect value = 0.5279

// CC(C)c1ncc2c(n1)CN(Cc1nc(-c3cccnc3)no1)CC2 : Percent Effect value = 97.53

// Cc1ccc(CCNC(=O)NCc2cccc(OC(F)F)c2)cn1 : Percent Effect value = -2.718

// CN(CCCc1cnn(C)c1)Cc1cc2n(n1)CCCN(C)C2 : Percent Effect value = 94.13

// O=C1CCc2cc(S(=O)(=O)NCc3cc4n(n3)CCCNC4)ccc2N1 : Percent Effect value = -2.764

// COc1ccc(C(C)NC(=O)Nc2nnc(C)s2)c(OC)c1 (centres undefined) : Percent Effect value = 5.487

// O=C(c1ccc2c(c1)OCO2)N1CCCC(Nc2ccc(F)cc2)C1 (centres undefined) : Percent Effect value = -14.66

// CCN(Cc1ccoc1)C(=O)c1cc2c(c(S(N)(=O)=O)c1)CCC2 : Percent Effect value = -33.33

// CN(CCCc1cnn(C)c1)Cc1cc2n(n1)CCNC2 : Percent Effect value = 121.7

// CCOC(=O)C1(CCOC)CCN(Cc2nccn2CC)CC1 : Percent Effect value = -7.374

// Cc1ccc(CSc2nc(N)cc(NCCC(=O)N3CCCC3)n2)cc1 : Percent Effect value = 92.81

// CN(CCc1ccccc1)c1cnn(CC(=O)N2CCSCC2)c(=O)c1 : Percent Effect value = -7.275

// CCn1c(N)nc2cc(C(=O)N3CCCOCC3)cnc21 : Percent Effect value = -12.44

// c1ccc(-c2noc(CN3CCc4cncnc4C3)n2)nc1 : Percent Effect value = 12.32

// CCOc1ccc(Cl)cc1CCNC(=O)N1CCCC(CO)C1 (centres undefined) : Percent Effect value = 2.242

// CC(C)c1ncc2c(n1)CN(Cc1nc(-c3ccoc3)no1)CC2 : Percent Effect value = -5.396

// COc1ccc(C(C)NCc2nnc(C)s2)cc1F (centres undefined) : Percent Effect value = -18.95

// CN(Cc1cc2n(n1)CCNC2)Cc1noc(C2CCC2)n1 : Percent Effect value = -1.079

// CN(Cc1cc2n(n1)CCCNC2)Cc1cc(-c2ccncc2)no1 : Percent Effect value = 4.022

// CN(CCCc1cnn(C)c1)C(=O)C1CCN(C(=O)C2CCC2)CC1 : Percent Effect value = 14.43

// COc1ccc(C(C)NCCc2ccc(NC(C)=O)cc2)c(OC)c1 (centres undefined) : Percent Effect value = 110.9

// CN(Cc1cc2n(n1)CCCNC2)Cc1ccno1 : Percent Effect value = -18.26

// N#CCSCCCN1CCC(C(=O)N2CCCCCC2)CC1 : Percent Effect value = 2.389

Data provenance is ChEMBL document CHEMBL3988442.
